# measurement_description: protein stability index of a GFP-peptide fusion (yeast GPS) (PSI 1-4); higher = more stable; sorted into four equal gates, so the index is relative within each strain
# setup_conditions: san1∆
protein stability index listing for selected sequences.
measured_metric: protein stability index

sequence_string	value_reported
GASTVMKTKTINAQGEE [PRP8]	3.2
YVDFVPMYKELWINYIK [POP4]	2.62
MVGLVDPDKLKPNDLVG [RPT5]	2.94
ALIDTEFANFELKDICS [YML103C/NUP188]	2.65
VNIHHLLNEYRPHQSRE [MED7]	1.81
SAKNRVVILARAKALGI [RPL32]	1.76
FKLDKDTSNWELSDSWR [YGL100W/SEH1]	3.39
SLNLTDDVISNAGTNDN [MCD1]	3.11
IQRTLMELLTQMDGFDN [RPT4]	3.28
KQRTKKEDKSEAIDGNG [SNF2]	3.17
KKIVDSKKLNLKIHQSH [YMR129W/POM152]	2.44
VDKIFEKVNNNATLTPN [SWI1]	3.22
SLIRNNLHAEGWPKLQL [ECM29]	1.32
SLQNNLQNNINNSNNNN [SNF11]	3.31
SSNPLGITGNLDRIPMH [COB]	2.44
PIAQPATDVEARAVQDN [RPL13A]	3.1
VENIERVVMMKYDRKVP [RPO21]	2.13
YTFKTSMRVKPSASLKL [YMR129W/POM152]	2.31
ETTIDDLPISSTDNEAI [SMC1]	2.66
ERDEQKRAEKKAKERLQ [SNF2]	2.98
SKEKANFLETIASTEKP [SIR4]	2.04
YQLNDRNVTKGDIVRML [SMC3]	2.84
RAPELLLGARHYTPAVD [SSN3]	1.9
KPQEIKDILVKTGITKK [PRE9]	2.56
RRRAFKRSQKKHKKKHL [RPB4]	3.13
PQAVTITSIMDDLALPY [ITC1]	2.72
DKPLLKAGRAFHKYRLK [RPL2A]	2.16
DLEEAYATQVKTDNTVD [RPT3]	2.47
RSDLQSKIQEIESIRSC [YIL149C/MLP2]	2.67
TVPEYLKTADNRDRSFQ [PGD1]	3.3
FNITDNGVRALFHSCTR [GRR1]	1.09
QDKSKKIMNVTTDSLTK [YMR129W/POM152]	3.1
EQHEEKAAEGEEKEEEN [QCR6]	2.98
AKGCEVVVSGKLRAARA [RPS3]	3.42
GEILLPDIADIPRTFRT [SNF5]	3.19
QLVLRGLLSQAIGCIER [YJR042W/NUP85]	1.71
ESQEKYMEPFDLDLNEQ [NSL1]	3.35
VTEMSNNANVLGGEIND [BRR2]	3.51
KEKLIGWYHSGPKLRAS [RPN8]	2.53
IHSKSMSVERGIRWELI [RPT1]	2.88
MEQCKQRYQDLSQQQKD [YIL149C/MLP2]	2.95
AIRRDARYNWICNPVHK [RPL15B]	3.37
KPMAFSNTTTHVPEKKS [MTR3]	2.32
YKKSTENESTNYQYKIQ [MED7]	2.41
WGIPLIKELRSKGYPIQ [FAS1]	1.69
